Reference source: ChEMBL document CHEMBL1145749

Target: Human immunodeficiency virus type 1 reverse transcriptase (Human immunodeficiency virus 1)
Give measured Ki for each item. Keep answers brief.
One number for each entry, in µM.

The examples below pair each entry with its known result.
Nc1ncnc2c1ncn2/C=C1/CC1COP(=O)(O)OP(=O)(O)OP(=O)(O)O (stereo not drawn) = 0.32
Nc1ncnc2c1ncn2[C@H]1CC[C@@H](COP(=O)(O)OP(=O)(O)OP(=O)(O)O)O1 [DDA-TRIPHOSPHATE] = 0.51

Please turn your attention to the following entry.
# query: Ki of entry Nc1ncnc2c1ncn2/C=C1\CC1COP(=O)(O)OP(=O)(O)OP(=O)(O)O (stereo not drawn)
10

----------
Molecular target: Human immunodeficiency virus type 1 reverse transcriptase (Human immunodeficiency virus 1, UniProt Q72547, M184I)
Assay: Inhibitory activity against HIV-1 reverse transcriptase (RT M184I)
quantity name: Ki (nM)
Answers are plain numbers, in nM.

# query: Ki of entry Nc1ncnc2c1ncn2[C@H]1CC[C@@H](COP(=O)(O)OP(=O)(O)OP(=O)(O)O)O1 [DDA-TRIPHOSPHATE]
1200
